B1: LOXL2 (parent)
chain: HISSCKLGPQVSLDPMKNVTCENG

Variants of: B1
Test: protein stability index of a GFP-peptide fusion (GPS, HEK-293T) (PSI 1-6); higher = more stable;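 also: lentivirally expressed fusions sorted by FACS into six bins by GFP to DsRed ratio, PSI derived from sequencing read proportions per bin multiplied by bin number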
Details: c terminus: a fixed tail appended
Please go through the items and note down their protein stability index.
Answer using only a numeral; do not append any unit.

Query: Please give the documented protein stability index of HISSCKIGPQVSLDPMKNVTCENG [L7I]
Response: 4.57

Query: Please give the documented protein stability index of HISSCKLGPQVSLDPMKNETCENG [V19E]
Response: 4.44

Query: Please give the documented protein stability index of HISSCKLGPQVSLDPPKNVTCENG [M16P]
Response: 4.16

Query: Please give the documented protein stability index of HIRSCKLGPQVSLDPMKNVTCENG [S3R]
Response: 3.48

Query: Please give the documented protein stability index of HISSCKLGPQVSLDPMKNKTCENG [V19K]
Response: 4.13

Query: Please give the documented protein stability index of HISSKKLGPQVSLDPMKNVTCENG [C5K]
Response: 4.53

Query: Please give the documented protein stability index of HISSCKLPPQVSLDPMKNVTCENG [G8P]
Response: 4.01

Query: Please give the documented protein stability index of HISSCKLGPQVSLNPMKNVTCENG [D14N]
Response: 3.33

Query: Please give the documented protein stability index of HISSCKLGPQVSLDPMKNVTCENV [G24V]
Response: 3.67

Query: Please give the documented protein stability index of HISGCKLGPQVSLDPMKNVTCENG [S4G]
Response: 3.79

Query: Please give the documented protein stability index of HISSCKLGPQVSLDPMKNVTGENG [C21G]
Response: 4.05

Query: Please give the documented protein stability index of HIISCKLGPQVSLDPMKNVTCENG [S3I]
Response: 3.39

Query: Please give the documented protein stability index of HISSCKLGPQVQLDPMKNVTCENG [S12Q]
Response: 4.44

Query: Please give the documented protein stability index of HISSCKLGPQVYLDPMKNVTCENG [S12Y]
Response: 3.24

Query: Please give the documented protein stability index of HISSCKLGPQVSLDPMKNVTCECG [N23C]
Response: 4.01

Query: Please give the documented protein stability index of HISSCKLGPQVDLDPMKNVTCENG [S12D]
Response: 3.72

Query: Please give the documented protein stability index of HISSRKLGPQVSLDPMKNVTCENG [C5R]
Response: 4.1

Query: Please give the documented protein stability index of HISSHKLGPQVSLDPMKNVTCENG [C5H]
Response: 4.37

Query: Please give the documented protein stability index of HISSCKLGPQVSHDPMKNVTCENG [L13H]
Response: 4.34

Query: Please give the documented protein stability index of HISSCKLGPQVSLDPMKNVTQENG [C21Q]
Response: 3.86

Query: Please give the documented protein stability index of HLSSCKLGPQVSLDPMKNVTCENG [I2L]
Response: 4.24

Query: Please give the documented protein stability index of HISSCKLGPQVSLMPMKNVTCENG [D14M]
Response: 3.22
